- procedure-details: reversal of MRP1-mediated doxorubicin resistance, pilot screen, H69AR cells, doxorubicin co-treatment (AID 601)
- stated-conditions: H69AR cells, CellTiter-Glo, 72 h; compound alone cytotoxicity; at 10 µM
Lab note: cut-off is 80%. Strictly less in viability is true. Exactly 80% or more is false.

Answered examples (3):
- compound: "COC(=O)c1oc2ccc(OC)cc2c1N"
  classification: "false"
- compound: "Cc1ccccc1-n1c(SCc2c(C)noc2C)nnc1-c1ccncc1"
  classification: "false"
- compound: "Cc1cccc(-n2ncc3c(NCc4cccs4)ncnc32)c1"
  classification: "true"

Ask: Field: below-cutoff. Rule: recorded viability strictly less than 80%. Subject: C1CCN=C(Nc2nc3c(s2)CCCC3)CC1
Result: false

Ask: Field: below-cutoff. Rule: recorded viability strictly less than 80%. Subject: Cc1[nH]nc(N=CC2=C(O)CC(C)(C)CC2=O)c1-c1ccccc1
Result: false
